# Tested target: T1, Human 4-1BB extracellular domain recombinant protein (his-tag) (human, UniProt Q07011 24-186)
# T1 construct: extracellular domain; also called Human4-1BB, his-tag; human 4-1BB extracellular region recombinant protein; not shown: his-tag
# Assay method text: SPR (Biacore 8K), VHH-hFc captured on Protein A chip, human 4-1BB-his as analyte, 25°C, 1:1 fit
Value kind: kon (M⁻¹ s⁻¹)
Numeric answer only, unit M⁻¹ s⁻¹ assumed.

// worked examples, kon included
Binder | kon (M⁻¹ s⁻¹)
137-16 VHH-hFc recombinant antibody (Fc fusion, VHH fragment inserted into vector pFclG with human IgG1 Fc tag, expressed in HEK293F; Preparation had non-specific bands, purity >70%; also called CD137-16; not shown: human IgG1 Fc tag of the eukaryotic expression vector pFclG) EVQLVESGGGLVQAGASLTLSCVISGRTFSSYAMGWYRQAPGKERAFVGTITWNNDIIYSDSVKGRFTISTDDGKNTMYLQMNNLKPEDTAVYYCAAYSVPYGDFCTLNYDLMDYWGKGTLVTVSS | 82200
137-7 VHH-hFc recombinant antibody (Fc fusion, VHH fragment inserted into vector pFclG with human IgG1 Fc tag, expressed in HEK293F; also called CD137-7; not shown: human IgG1 Fc tag of the eukaryotic expression vector pFclG) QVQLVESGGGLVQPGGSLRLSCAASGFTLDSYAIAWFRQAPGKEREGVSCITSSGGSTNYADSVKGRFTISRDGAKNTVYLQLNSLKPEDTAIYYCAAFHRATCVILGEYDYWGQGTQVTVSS | 783000
137-1 VHH-hFc recombinant antibody (Fc fusion, also called CD137-1; not shown: human IgG1 Fc tag of the eukaryotic expression vector pFclG) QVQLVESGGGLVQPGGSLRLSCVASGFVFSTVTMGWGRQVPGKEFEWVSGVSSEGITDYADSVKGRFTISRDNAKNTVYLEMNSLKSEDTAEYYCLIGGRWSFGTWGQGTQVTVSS | 2.34e+06

[ask] Fill in kon for record 137-18 VHH-hFc recombinant antibody (Fc fusion, VHH fragment inserted into vector pFclG with human IgG1 Fc tag, expressed in HEK293F; also called CD137-18; not shown: human IgG1 Fc tag of the eukaryotic expression vector pFclG) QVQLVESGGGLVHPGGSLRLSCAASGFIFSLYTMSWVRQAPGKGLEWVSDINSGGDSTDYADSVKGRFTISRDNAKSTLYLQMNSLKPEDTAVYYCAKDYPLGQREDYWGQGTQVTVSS
[reply] 236000
